assay: In vivo pharmacokinetic study in CD-1 mice, 30 mg/kg SC; details: male, CD-1, sc; plasma, mouse, 30 mg/kg subcutaneous
Experimental readout: MRT

Which MRT is listed for CC(=O)c1ccc(NC(=O)[C@@H](NC(=O)C(CC(C)C)P(=O)(O)O)C(C)C)cc1 (stereo partly shown) [compound 30] ? 24.6 h

---

assay: In vivo pharmacokinetic study in CD-1 mice, 30 mg/kg SC; settings: male, CD-1, sc; plasma, mouse, 30 mg/kg subcutaneous
Experimental readout: Cmax (µg/mL)
Give your result in µg/mL as a bare value.

What value of Cmax has been reported for the following compound? CC(=O)c1ccc(NC(=O)[C@@H](NC(=O)C(CC(C)C)P(=O)(O)O)C(C)C)cc1 (stereo partly shown) 32.2
